experiment: Stability of physostigmine in rat plasma; type: in vitro ADME; conditions: rat, plasma; kept at 4° C. for 3 hr; read-out: physostigmine recovered from plasma samples
Reported metric: remaining at 3 h

Ask: Supply measured remaining at 3 h of CNC(=O)Oc1ccc2c(c1)[C@]1(C)CCN(C)[C@@H]1N2C in your reply.
Result: > 95%

* * *

assay: Physostigmine pharmacokinetics and tissue concentrations in rats after intramuscular administration; assay type: in vivo, Male Sprague-Dawley rats; settings: rat, muscle, im; 0.3 mg/kg intramuscular, 10 min; read-out: Tissue concentration of physostigmine, Muscle
Reported metric: concentration at 10 min
Form entry: enter the amount, then its unit.

Ask: Supply measured concentration at 10 min of CNC(=O)Oc1ccc2c(c1)[C@]1(C)CCN(C)[C@@H]1N2C [Physostigmine, physostigmine] in your reply.
Result: 540 ng/g

* * *

I'd appreciate it if you could supply IC50 (50% inhibition of binding of 3H-physostigmine) values for the items below.
target: Antibody from Diazo-coupled Immunogen; assay: RIA cross-reactivity: competition with labeled physostigmine for antibody from diazo-coupled immunogen; type: binding, New Zealand white rabbits; conditions: 1:150, max 1000 ng tested
Just the number in ng, nothing appended.

Ask: Supply measured IC50 (50% inhibition of binding of 3H-physostigmine) of CN1CC[C@@]2(C)c3cc(O)ccc3N(C)[C@@H]12 [Eseroline, eseroline] in your reply.
Result: 200

Ask: Supply measured IC50 (50% inhibition of binding of 3H-physostigmine) of CN1CCC2(C)c3cc4nc5c(=O)c6c(cc-5oc4cc3N(C)C12)N(C)C1N(C)CCC61C (stereo not shown) [Eserine blue] in your reply.
Result: 600

Ask: Supply measured IC50 (50% inhibition of binding of 3H-physostigmine) of CNC(=O)Oc1ccc2c(c1)[C@]1(C)CCN(C)[C@@H]1N2C [Physostigmine, physostigmine] in your reply.
Result: 1.35

Ask: Supply measured IC50 (50% inhibition of binding of 3H-physostigmine) of CN1CC[C@@]2(C)C3=CC(=O)C(=O)C=C3N(C)[C@@H]12 [Rubreserine] in your reply.
Result: 224

* * *

assay: Physostigmine pharmacokinetics and tissue concentrations in rats after intramuscular administration; format: in vivo, Male Sprague-Dawley rats; details: rat, spleen, im; 0.3 mg/kg intramuscular, 90 min; read-out: Tissue concentration of physostigmine, Spleen
Reported metric: concentration at 1.5 h (ng/g)
Just the number in ng/g, nothing appended.

Ask: Supply measured concentration at 1.5 h of CNC(=O)Oc1ccc2c(c1)[C@]1(C)CCN(C)[C@@H]1N2C [Physostigmine, physostigmine] in your reply.
Result: 358

* * *

experiment: Physostigmine pharmacokinetics and tissue concentrations in rats after intramuscular administration; type: in vivo, Male Sprague-Dawley rats; details: rat, spleen, im; 0.3 mg/kg intramuscular, 20 min; read-out: Tissue concentration of physostigmine, Spleen
Reported metric: concentration at 20 min (ng/g)
Just the number in ng/g, nothing appended.

Ask: Supply measured concentration at 20 min of CNC(=O)Oc1ccc2c(c1)[C@]1(C)CCN(C)[C@@H]1N2C [Physostigmine, physostigmine] in your reply.
Result: 986

* * *

assay: Physostigmine pharmacokinetics and tissue concentrations in rats after intramuscular administration; assay type: in vivo, Male Sprague-Dawley rats; conditions: rat, muscle, im; 0.3 mg/kg intramuscular, 120 min; read-out: Tissue concentration of physostigmine, Muscle
Reported metric: concentration at 2 h (ng/g)
Just the number in ng/g, nothing appended.

Ask: Supply measured concentration at 2 h of CNC(=O)Oc1ccc2c(c1)[C@]1(C)CCN(C)[C@@H]1N2C in your reply.
Result: 35

* * *

experiment: Physostigmine pharmacokinetics and tissue concentrations in rats after intramuscular administration; type: in vivo, Male Sprague-Dawley rats; settings: rat, fat, im; 0.3 mg/kg intramuscular, 5 min; read-out: Tissue concentration of physostigmine, Fat
Reported metric: concentration at 5 min
Form entry: enter the amount, then its unit.

Ask: Supply measured concentration at 5 min of CNC(=O)Oc1ccc2c(c1)[C@]1(C)CCN(C)[C@@H]1N2C in your reply.
Result: 533 ng/g

* * *

experiment: Physostigmine pharmacokinetics and tissue concentrations in rats after intramuscular administration; type: in vivo, Male Sprague-Dawley rats; conditions: rat, heart, im; 0.3 mg/kg intramuscular, 60 min; read-out: Tissue concentration of physostigmine, Heart
Reported metric: concentration at 1 h (ng/g)
Just the number in ng/g, nothing appended.

Ask: Supply measured concentration at 1 h of CNC(=O)Oc1ccc2c(c1)[C@]1(C)CCN(C)[C@@H]1N2C in your reply.
Result: 78.5

* * *

assay: Physostigmine pharmacokinetics and tissue concentrations in rats after intramuscular administration; format: in vivo, Male Sprague-Dawley rats; conditions: rat, brain, im; 0.3 mg/kg intramuscular, 20 min; read-out: Tissue concentration of physostigmine, Brain
Reported metric: concentration at 20 min (ng/g)
Just the number in ng/g, nothing appended.

Ask: Supply measured concentration at 20 min of CNC(=O)Oc1ccc2c(c1)[C@]1(C)CCN(C)[C@@H]1N2C in your reply.
Result: 198

* * *

Test: Physostigmine pharmacokinetics and tissue concentrations in rats after intramuscular administration
Type: in vivo, Male Sprague-Dawley rats
Conditions: rat, heart, im; 0.3 mg/kg intramuscular, 90 min; read-out: Tissue concentration of physostigmine, Heart
Experimental: To study the pharmakinetics of physostigmine and validate the RIA and the antibody specificity of the present invention, rat studies were conducted. […] The blood and tissue samples were used to determine the concentration of physostigmine as a function of time. FIG. 3 gives the physostigmine level in the plasma of three male rats for each time interval as determined by the RIA of the present invention, while Table 4 presents the concentration of physostigmine in various organs as a function of time.
Reported metric: concentration at 1.5 h (ng/g)
Just the number in ng/g, nothing appended.

Ask: Supply measured concentration at 1.5 h of CNC(=O)Oc1ccc2c(c1)[C@]1(C)CCN(C)[C@@H]1N2C [Physostigmine, physostigmine] in your reply.
Result: 66.9

* * *

assay: Physostigmine pharmacokinetics and tissue concentrations in rats after intramuscular administration; assay type: in vivo, Male Sprague-Dawley rats; details: rat, heart, im; 0.3 mg/kg intramuscular, 20 min; read-out: Tissue concentration of physostigmine, Heart
Reported metric: concentration at 20 min (ng/g)
Just the number in ng/g, nothing appended.

Ask: Supply measured concentration at 20 min of CNC(=O)Oc1ccc2c(c1)[C@]1(C)CCN(C)[C@@H]1N2C [Physostigmine, physostigmine] in your reply.
Result: 371

* * *

test: Physostigmine pharmacokinetics and tissue concentrations in rats after intramuscular administration; format: in vivo, Male Sprague-Dawley rats; conditions: rat, muscle, im; 0.3 mg/kg intramuscular, 20 min; read-out: Tissue concentration of physostigmine, Muscle
Reported metric: concentration at 20 min (ng/g)
Just the number in ng/g, nothing appended.

Ask: Supply measured concentration at 20 min of CNC(=O)Oc1ccc2c(c1)[C@]1(C)CCN(C)[C@@H]1N2C in your reply.
Result: 323

* * *

test: Physostigmine pharmacokinetics and tissue concentrations in rats after intramuscular administration; format: in vivo, Male Sprague-Dawley rats; conditions: rat, heart, im; 0.3 mg/kg intramuscular, 45 min; read-out: Tissue concentration of physostigmine, Heart
Reported metric: concentration at 0.75 h (ng/g)
Just the number in ng/g, nothing appended.

Ask: Supply measured concentration at 0.75 h of CNC(=O)Oc1ccc2c(c1)[C@]1(C)CCN(C)[C@@H]1N2C in your reply.
Result: 79.2

* * *

assay: Physostigmine pharmacokinetics and tissue concentrations in rats after intramuscular administration; format: in vivo, Male Sprague-Dawley rats; conditions: rat, muscle, im; 0.3 mg/kg intramuscular, 30 min; read-out: Tissue concentration of physostigmine, Muscle
Reported metric: concentration at 0.5 h (ng/g)
Just the number in ng/g, nothing appended.

Ask: Supply measured concentration at 0.5 h of CNC(=O)Oc1ccc2c(c1)[C@]1(C)CCN(C)[C@@H]1N2C in your reply.
Result: 243

* * *

test: Physostigmine pharmacokinetics and tissue concentrations in rats after intramuscular administration; assay type: in vivo, Male Sprague-Dawley rats; settings: rat, spleen, im; 0.3 mg/kg intramuscular, 10 min; read-out: Tissue concentration of physostigmine, Spleen
Reported metric: concentration at 10 min (ng/g)
Just the number in ng/g, nothing appended.

Ask: Supply measured concentration at 10 min of CNC(=O)Oc1ccc2c(c1)[C@]1(C)CCN(C)[C@@H]1N2C in your reply.
Result: 955

* * *

test: Physostigmine pharmacokinetics and tissue concentrations in rats after intramuscular administration; type: in vivo, Male Sprague-Dawley rats; settings: rat, fat, im; 0.3 mg/kg intramuscular, 180 min; read-out: Tissue concentration of physostigmine, Fat
Reported metric: concentration at 3 h (ng/g)
Just the number in ng/g, nothing appended.

Ask: Supply measured concentration at 3 h of CNC(=O)Oc1ccc2c(c1)[C@]1(C)CCN(C)[C@@H]1N2C [Physostigmine, physostigmine] in your reply.
Result: 10.3

* * *

assay: Physostigmine pharmacokinetics and tissue concentrations in rats after intramuscular administration; format: in vivo, Male Sprague-Dawley rats; conditions: rat, fat, im; 0.3 mg/kg intramuscular, 10 min; read-out: Tissue concentration of physostigmine, Fat
Reported metric: concentration at 10 min (ng/g)
Just the number in ng/g, nothing appended.

Ask: Supply measured concentration at 10 min of CNC(=O)Oc1ccc2c(c1)[C@]1(C)CCN(C)[C@@H]1N2C [Physostigmine, physostigmine] in your reply.
Result: 398
